- measurement target: Retinoic acid receptor RXR-beta (Mus musculus, UniProt P28704)
- Sequence (P28704 whole entry): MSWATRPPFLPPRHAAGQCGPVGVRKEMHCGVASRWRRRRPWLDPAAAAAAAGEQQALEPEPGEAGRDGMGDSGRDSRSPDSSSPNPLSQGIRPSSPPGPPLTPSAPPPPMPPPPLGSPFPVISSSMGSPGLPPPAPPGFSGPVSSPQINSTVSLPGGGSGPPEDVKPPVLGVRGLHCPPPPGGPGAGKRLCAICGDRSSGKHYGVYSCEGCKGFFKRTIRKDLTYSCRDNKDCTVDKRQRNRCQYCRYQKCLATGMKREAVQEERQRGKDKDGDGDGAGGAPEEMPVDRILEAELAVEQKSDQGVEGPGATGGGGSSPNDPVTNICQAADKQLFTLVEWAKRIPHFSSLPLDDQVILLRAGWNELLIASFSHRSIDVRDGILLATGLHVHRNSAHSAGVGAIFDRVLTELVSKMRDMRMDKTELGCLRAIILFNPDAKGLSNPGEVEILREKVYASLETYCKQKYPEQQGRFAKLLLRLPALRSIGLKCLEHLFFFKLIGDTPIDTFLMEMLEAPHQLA
- method summary: Transcriptional activation in CV-1 cells expressing mouse Retinoid X receptor RXR beta
Kindly state pEC50 for each of the entries shown.
One number for each entry, as −log10 of the molar value.

Field: example entries. Status: answers known.
CC(/C=C/CC1(c2cc3c(cc2C)C(C)(C)CCC3(C)C)CC1)=C\C(=O)O = 8.05
CC(/C=C/CC1(c2ccc3c(c2)C(C)(C)CCC3(C)C)CCCC1)=C\C(=O)O = 7.72

Read the next record carefully.
Field pEC50 (entry "CC(/C=C/CC1(c2cc(C(C)(C)C)cc(C(C)(C)C)c2)CC1)=C\C(=O)O" ) reads 7.72
